List of IC50 values.
Biological target: EGFR del19/T790M/C797S (Homo sapiens, UniProt P00533, C797S/DEL746-750/T790M)
Sequence (P00533 with tags, fused parts or gaps DEL746-750/T790M/C797S): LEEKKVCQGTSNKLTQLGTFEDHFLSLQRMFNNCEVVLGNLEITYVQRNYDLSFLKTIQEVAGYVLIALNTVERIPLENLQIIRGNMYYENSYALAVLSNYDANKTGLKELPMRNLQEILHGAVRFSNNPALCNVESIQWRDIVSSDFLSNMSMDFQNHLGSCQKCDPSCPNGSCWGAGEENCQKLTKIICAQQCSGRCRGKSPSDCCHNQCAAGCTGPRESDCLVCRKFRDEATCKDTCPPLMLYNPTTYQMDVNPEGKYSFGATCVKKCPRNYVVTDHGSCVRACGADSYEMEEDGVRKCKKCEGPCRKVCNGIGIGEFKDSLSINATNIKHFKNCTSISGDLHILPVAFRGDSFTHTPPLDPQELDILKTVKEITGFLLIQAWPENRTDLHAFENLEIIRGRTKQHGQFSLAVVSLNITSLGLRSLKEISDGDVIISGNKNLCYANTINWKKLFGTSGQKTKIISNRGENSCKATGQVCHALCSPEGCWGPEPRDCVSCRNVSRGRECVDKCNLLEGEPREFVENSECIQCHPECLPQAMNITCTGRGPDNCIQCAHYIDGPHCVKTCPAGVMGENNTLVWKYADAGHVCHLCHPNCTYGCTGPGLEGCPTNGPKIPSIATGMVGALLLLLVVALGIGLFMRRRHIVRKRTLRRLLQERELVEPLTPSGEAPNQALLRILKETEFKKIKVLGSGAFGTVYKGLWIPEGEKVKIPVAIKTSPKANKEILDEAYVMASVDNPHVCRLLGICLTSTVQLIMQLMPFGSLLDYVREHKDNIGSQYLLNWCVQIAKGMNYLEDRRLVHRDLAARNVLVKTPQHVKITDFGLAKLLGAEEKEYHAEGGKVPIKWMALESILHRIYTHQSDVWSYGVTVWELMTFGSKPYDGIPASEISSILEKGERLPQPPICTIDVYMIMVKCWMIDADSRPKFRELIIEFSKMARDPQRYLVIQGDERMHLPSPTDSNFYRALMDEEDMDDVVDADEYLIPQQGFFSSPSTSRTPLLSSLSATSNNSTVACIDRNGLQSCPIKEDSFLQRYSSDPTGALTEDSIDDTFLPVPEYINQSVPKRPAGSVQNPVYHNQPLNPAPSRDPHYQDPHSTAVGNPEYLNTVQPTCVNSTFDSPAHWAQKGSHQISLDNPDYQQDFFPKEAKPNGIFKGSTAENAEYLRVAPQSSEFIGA
Assay: Biochemical EGFR kinase assay (Lance Ultra TR-FRET), triple mutant del19/T790M/C797S
Conditions: IC50 del19/T790M/C797S (nM) 100 μM ATP, 100 μM ATP
Protocol: Biochemical EGFR kinase assays were conducted using Lance Ultra time-resolved fluorescence resonance energy transfer (TR-FRET) technology from Perkin-Elmer. […] Each kinase reactions were incubated at room temperature for 1 hour and then stopped by the addition of 4 μL of stop solution (10 mM EDTA). […] After 60 minutes incubation at room temperature the LANCE signal was measured on an EnVision Multilabel Reader (Perkin-Elmer). […]
assay.readout: IC50 (nM)

>  <compound>
CC(C)(O)[C@H]1CC[C@@H](Nc2cc(Nc3ccnc(-c4cnn(S(=O)(=O)C5CC5)c4)n3)ncc2-c2cc3n(n2)CCCC3)CC1

>  <numeric.readout>
4.3

$$$$
>  <compound>
CN(CC(F)F)C[C@H]1CC[C@@H](Nc2cc(Nc3ccnc(-c4cnn(S(=O)(=O)C5CC5)c4)n3)ncc2-c2ccn(C)n2)CC1

>  <numeric.readout>
7.4

$$$$
>  <compound>
CNC(=O)[C@H]1CC[C@@H](Nc2cc(Nc3ccnc(-c4cnn(S(=O)(=O)C5CC5)c4)n3)ncc2-c2ccn(C(F)F)n2)CC1

>  <numeric.readout>
0.5

$$$$
>  <compound>
O=C1CC[C@]2(CC[C@H](Nc3cc(Nc4ccnc(-c5cnn(S(=O)(=O)C6CC6)c5)n4)ncc3-c3csc(C(F)(F)F)n3)CC2)N1

>  <numeric.readout>
0.6

$$$$
>  <compound>
Cn1ccc(-c2cnc(Nc3ccnc(-c4cnn(S(=O)(=O)C5CC5)c4)n3)cc2NCC2(C)CCC(O)CC2)n1 (stereo not shown)

>  <numeric.readout>
1

$$$$
>  <compound>
CC(C)(O)[C@H]1CC[C@@H](Nc2cc(Nc3ccnc(-c4cnn(S(=O)(=O)C5CC5)c4)n3)ncc2-c2ccn(C3COC3)n2)CC1

>  <numeric.readout>
0.6

$$$$
>  <compound>
O=S(=O)(C1CC1)n1cc(-c2nccc(Nc3cc(NC[C@H]4CC[C@H](O)CC4)c(-c4ccn(C(F)F)n4)cn3)n2)cn1

>  <numeric.readout>
1.3

$$$$
>  <compound>
O=S(=O)(C1CC1)n1cc(-c2nccc(Nc3cc(N[C@H]4CC[C@@H](CO)CC4)c(-c4ccn(CC(F)F)n4)cn3)n2)cn1

>  <numeric.readout>
0.2

$$$$
>  <compound>
O=S(=O)(C1CC1)n1cc(-c2nccc(Nc3cc(N[C@H]4CC[C@@H](O)CC4)c(-c4ccn(C(F)F)n4)cn3)n2)cn1

>  <numeric.readout>
0.7

$$$$
>  <compound>
O=S(=O)(C1CC1)n1cc(-c2nccc(Nc3cc(N[C@@H]4CCC[C@H](O)C4)c(-c4csc(C(F)(F)F)n4)cn3)n2)cn1

>  <numeric.readout>
3.5

$$$$
>  <compound>
Cn1nc(-c2cnc(Nc3ccnc(-c4cnn(S(=O)(=O)C5CC5)c4)n3)cc2N[C@H]2CC[C@@H](NCCF)CC2)cc1C(F)(F)F

>  <numeric.readout>
0.8

$$$$
>  <compound>
CC(C)(O)[C@H]1CC[C@@H](Nc2cc(Nc3ccnc(-c4cnn(S(=O)(=O)C5CC5)c4)n3)ncc2-c2ccn(CC(F)F)n2)CC1

>  <numeric.readout>
2.7

$$$$
>  <compound>
Cn1ccc(-c2cnc(Nc3ccnc(-c4cnn(S(=O)(=O)C5CC5)c4)n3)cc2N[C@H]2CC[C@H](CO)CC2)n1

>  <numeric.readout>
0.1

$$$$
>  <compound>
O=S(=O)(C1CC1)n1cc(-c2nccc(Nc3cc(NC4CCCC(NCCF)C4)c(-c4ccn(C(F)F)n4)cn3)n2)cn1 (stereo not shown)

>  <numeric.readout>
0.2

$$$$
>  <compound>
O=S(=O)(C1CC1)n1cc(-c2nccc(Nc3cc(N[C@H]4CC[C@H](CCO)CC4)c(-c4ccn(CC(F)(F)F)n4)cn3)n2)cn1

>  <numeric.readout>
2.1

$$$$
>  <compound>
Cn1ccc(-c2cnc(Nc3ccnc(-c4cnn(S(=O)(=O)C5CC5)c4)n3)cc2N[C@H]2CC[C@@H](NCCF)CC2)n1

>  <numeric.readout>
0.3

$$$$
>  <compound>
CN[C@H]1CC[C@@H](Nc2cc(Nc3ccnc(-c4cnn(S(=O)(=O)C5CC5)c4)n3)ncc2-c2ccco2)CC1

>  <numeric.readout>
0.2

$$$$
>  <compound>
Cn1ccc(-c2cnc(Nc3ccnc(-c4cnn(S(=O)(=O)C5CC5)c4)n3)cc2N[C@H]2CC[C@]3(CCC(=O)N3)CC2)n1

>  <numeric.readout>
0.2

$$$$
>  <compound>
Cn1ccc(-c2cnc(Nc3ccnc(-c4cnn(S(=O)(=O)C5CC5)c4)n3)cc2N[C@H]2CC[C@H](CCO)CC2)n1

>  <numeric.readout>
0.5

$$$$
>  <compound>
O=S(=O)(C1CC1)n1cc(-c2nccc(Nc3cc(NC[C@H]4CC[C@@H](O)C4)c(-c4ccn(CC(F)(F)F)n4)cn3)n2)cn1

>  <numeric.readout>
0.6

$$$$
>  <compound>
Cn1nc(-c2cnc(Nc3ccnc(-c4cnn(CC(F)(F)F)c4)n3)cc2N[C@H]2CC[C@@](C)(O)CC2)cc1C(F)(F)F

>  <numeric.readout>
6.5

$$$$
>  <compound>
CC(O)C(C)(C)Nc1cc(Nc2ccnc(-c3cnn(S(=O)(=O)C4CC4)c3)n2)ncc1-c1ccn(C(F)F)n1 (stereo not shown)

>  <numeric.readout>
2.6

$$$$
>  <compound>
C[C@]1(O)CC[C@@H](Nc2cc(Nc3ccnc(-c4cnn(S(=O)(=O)C5CC5)c4)n3)ncc2-c2cc3n(n2)CCCC3)CC1

>  <numeric.readout>
0.8

$$$$
>  <compound>
CN(C)CC1(C)CCC(Nc2cc(Nc3ccnc(-c4cnn(S(=O)(=O)C5CC5)c4)n3)ncc2-c2ccn(CC(F)F)n2)CC1 (stereo not shown)

>  <numeric.readout>
0.9

$$$$
>  <compound>
CN(C)C(=O)n1cc(-c2nccc(Nc3cc(N[C@H]4CC[C@@](C)(O)CC4)c(-c4ccn(C(F)F)n4)cn3)n2)cn1

>  <numeric.readout>
3.5

$$$$
